Kindly state pEC50 for each of the entries shown.
Biological target: RNA samples (Chi18 or HCV IRES)
Assay: Droplet Digital Polymerase Chain Reaction (ddPCR) assay of RNA protection
Conditions: 50 mM Tris buffer pH 11.4, 16 hrs at 30° C. for Chi18 or 42° C. for HCV; table does not say which RNA; 600 µM to 0.018 µM compound, 2% DMSO; read-out: EC50 Values Obtained from the ddPCR Assay
Give bare numbers, as −log10 of the molar value.

Check out these entries, answers already filled in.
CN1CCN(Cc2ccc([B@@-]3(c4ccc(C#N)cc4)Oc4cccc5ccc[n+]3c45)cc2Cl)CC1 : 3.68
CC(C)(C)OC(=O)NCCC[B-](F)(F)F : 3.52
CN(C)/C(O)=C/C1=[O+][B-](F)(F)Oc2cc(O)ccc21 : 3.49

In the following, a different compound is considered.
QUERY: Kindly indicate its recorded pEC50. Item: C[C@H]1c2c(NC(=O)c3ccc4c(c3)B(O)OC4)ccc(O)c2C(=O)C2=C(O)[C@]3(O)C(=O)C(C(N)=O)=C(O)[C@@H](N(C)C)[C@@H]3[C@@H](O)[C@@H]21
RESULT: 3.55

---

Kindly state EC50 for each of the entries shown.
Biological target: RNA samples (Chi18 or HCV IRES)
Experiment: Droplet Digital Polymerase Chain Reaction (ddPCR) assay of RNA protection
Conditions: 50 mM Tris buffer pH 11.4, 16 hrs at 30° C. for Chi18 or 42° C. for HCV; table does not say which RNA; 600 µM to 0.018 µM compound, 2% DMSO; read-out: EC50 Values Obtained from the ddPCR Assay
Note: a bare number is incomplete; add the unit.

CN1CCN(Cc2ccc(B(Oc3cccc4cccnc34)c3ccc(C#N)c(Cl)c3)cc2)CC1 : 242 µM

Required: EC50, one value per compound below.
1. O=C(Nc1ccc2c(c1)B(O)OC2)c1ccccc1
2. C[C@H]1c2c(NC(=O)c3ccc4c(c3)B(O)OC4(C)C)ccc(O)c2C(=O)C2=C(O)[C@]3(O)C(=O)C(C(N)=O)=C(O)[C@@H](N(C)C)[C@@H]3[C@@H](O)[C@@H]21
3. C[C@H]1c2ccc(NCCC(=O)Nc3ccc4c(c3)OCCOB4O)c(O)c2C(=O)C2=C(O)[C@]3(O)C(=O)C(C(N)=O)=C(O)[C@@H](N(C)C)[C@@H]3[C@@H](O)[C@@H]21
4. O=C(O)C[C@@H]1OB(O)c2cccc(B(O)O)c21
5. CN1CCN(Cc2cccc([B@@-]3(c4ccc(F)cc4)Oc4cccc5ccc[n+]3c45)c2)CC1
6. Cc1cc(CNc2nc(N3CCC[C@@H](c4ccccc4C)C3)nc3[nH]ccc23)on1

RESULT:
["266 µM", "258 µM", "99.1 µM", "226 µM", "140 µM", "388 µM"]

---

Molecular target: RNA samples (Chi18 or HCV IRES)
Test: Droplet Digital Polymerase Chain Reaction (ddPCR) assay of RNA protection
Settings: 50 mM Tris buffer pH 11.4, 16 hrs at 30° C. for Chi18 or 42° C. for HCV; table does not say which RNA; 600 µM to 0.018 µM compound, 2% DMSO; read-out: EC50 Values Obtained from the ddPCR Assay
Provide the recorded EC50 for the entries that follow.
Numbers only, in µM.

Observe how each entry below is paired with its result.
CN(C)c1cc(NC(=O)CCNC(=O)c2ccc3c(c2)COB3O)c(O)c2c1C[C@H]1C[C@H]3[C@H](N(C)C)C(O)=C(C(N)=O)C(=O)[C@@]3(O)C(O)=C1C2=O : 286
BBBBBBBBBB1C(Cc2ccc(O)cc2)=C1Cc1ccc(O)cc1 : 488

Hi there! I need EC50 for each item below, if you can.
1. CN(C)Cc1ccc(B(Oc2cccc3cccnc23)c2cccc(C#N)c2)cc1Cl
2. Cc1cc(C(=O)O)ccc1B1OC(C)(C)C(C)(C)O1

RESULT:
1. 137
2. 463

The origin of these recorded values is patent US20230340530A1.
